Give inhibition at 6 µM for every item shown.
# Tested on: NLRP3 inflammasome (IL-1β production in THP-1 cells)
# experiment-description: IL-1β TR-FRET Assay (percentage of inhibition at 300 nM, 6 μM or 10 μM)
# Format: cell-based, human
# condition-notes: Homo sapiens, THP-1, 6 μM, LPS priming, ATP activation, read-out: IL-1β inhibitory rate at 6 μM (%)

Problem: Need inhibition at 6 µM of COc1nc2nn(-c3c(C)cc(C4CC4)cc3CC(F)(F)F)cc2c(=O)[nH]1 [Example 230] , thanks.
Solution: 93%

Problem: Follow-up entry: O=c1[nH]c([C@@H]2COCCO2)nc2nn(-c3c(F)cc(C4CC4)cc3C(F)F)cc12 (single isomer, unassigned) [Example 313]
Solution: 104%

Problem: Follow-up entry: Cc1cc(C2CC2)cc(C(F)F)c1-n1cc2c(=O)[nH]c(COC(F)F)nc2n1 [Example 283]
Solution: 99%

Problem: Follow-up entry: O=c1[nH]c(COC(F)F)nc2nn(-c3ccc([N+](=O)[O-])cc3C(F)F)cc12 [Example 256]
Solution: 89%

Problem: Follow-up entry: O=c1[nH]c([C@H]2COCCO2)nc2nn(-c3c(F)cc(C4CC4)cc3C(F)F)cc12 (single isomer, unassigned) [Example 312]
Solution: 104%

Problem: Follow-up entry: Cc1cc(-c2nc3nn(-c4c(C)cc(C5CC5)cc4C)cc3c(=O)[nH]2)on1 [Example 275]
Solution: 101%

Problem: Follow-up entry: Cc1cc(C2CC2)cc(C)c1-n1cc2c(=O)[nH]c(-c3ncc(C(F)(F)F)[nH]3)nc2n1 [Example 242]
Solution: 104%

Problem: Follow-up entry: O=c1[nH]c(COC(F)F)nc2nn(-c3ccc(C4CC4)cc3C(F)F)cc12 [Example 271]
Solution: 102%

Problem: Follow-up entry: Cc1nc(-c2nc3nn(-c4c(C)cc(C5CC5)cc4C)cc3c(=O)[nH]2)co1 [Example 272]
Solution: 95%

Problem: Follow-up entry: CCc1cc(C2(F)CC2)cc(C)c1-n1cc2c(=O)[nH]c(OC)nc2n1 [Example 301]
Solution: 98%

Problem: Follow-up entry: CCc1cc(C2CC2)cc(C)c1-n1cc2c(=O)[nH]c(COC(F)F)nc2n1 [Example 291]
Solution: 98%

Problem: Follow-up entry: Cc1cc(C2CC2)cc(C)c1-n1cc2c(=O)[nH]c(C(C)(F)F)nc2n1 [Example 259]
Solution: 104%

Problem: Follow-up entry: COc1nc2nn(-c3c(C)cc(OC(F)F)cc3C(F)F)cc2c(=O)[nH]1 [Example 284]
Solution: 103%

Problem: Follow-up entry: Cc1cc(C2CC2)cc(C)c1-n1cc2c(=O)[nH]c(-c3ccn(C)n3)nc2n1 [Example 297]
Solution: 90%

Problem: Follow-up entry: CO[C@H]1C[C@@H](Oc2nc3nn(-c4ccc(C)cc4C)cc3c(=O)[nH]2)C1 [Example 243]
Solution: 100%

Problem: Follow-up entry: Cc1cc(C2(F)CC2)cc(C)c1-n1cc2c(=O)[nH]c(COC(F)F)nc2n1 [Example 263]
Solution: 104%

* * *

# Test system: NLRP3 inflammasome (IL-1β production in THP-1 cells)
# experiment-description: IL-1β TR-FRET Assay (percentage of inhibition at 300 nM, 6 μM or 10 μM)
# Format: cell-based, human
# condition-notes: Homo sapiens, THP-1, 6 μM, LPS priming, ATP activation, read-out: IL-1β inhibitory rate at 6 μM (%)
quantity: inhibition at 6 µM

Problem: Need inhibition at 6 µM of "Cc1cc(C2CC2)cc(C)c1-n1cc2c(=O)[nH]c([C@H]3CCCCO3)nc2n1" , thanks.
Solution: 93%

Problem: Follow-up entry: "Cc1cc(C2CC2)cc(C)c1-n1cc2c(=O)[nH]c(C3(F)CCOCC3)nc2n1"
Solution: 97%

Problem: Follow-up entry: "CCOc1nc2nn(-c3c(Br)cc(C4CC4)cc3C(F)F)cc2c(=O)[nH]1"
Solution: 103%

Problem: Follow-up entry: "O=c1[nH]c(COC(F)F)nc2nn(-c3ccc(Br)cc3C(F)F)cc12"
Solution: 101%

Problem: Follow-up entry: "Cc1cc(C2CC2)cc(C)c1-n1cc2c(=O)[nH]c([C@H]3C[C@@H](F)C3)nc2n1"
Solution: 98%

Problem: Follow-up entry: "CCOc1nc2nn(-c3c(C#N)cc(C4CC4)cc3C(F)F)cc2c(=O)[nH]1"
Solution: 100%

Problem: Follow-up entry: "CCc1nc2nn(-c3c(C)cc(C4CC4)cc3C)cc2c(=O)[nH]1"
Solution: 101%

Problem: Follow-up entry: "COCc1nc2nn(-c3c(C)cc(C4CC4)cc3C(F)F)cc2c(=O)[nH]1"
Solution: 103%

Problem: Follow-up entry: "COCCn1ccc(-c2nc3nn(-c4c(C)cc(C5CC5)cc4C)cc3c(=O)[nH]2)n1"
Solution: 95%

Problem: Follow-up entry: "Cc1c(Br)c(Br)cc(C(F)F)c1-n1cc2c(=O)[nH]c(COC(F)F)nc2n1"
Solution: 99%

Problem: Follow-up entry: "Cc1cc(C2CC2)cc(C)c1-n1cc2c(=O)[nH]c(C3=CCOCC3)nc2n1"
Solution: 108%

Problem: Follow-up entry: "Cc1cc(C2CC2)cc(C)c1-n1cc2c(=O)[nH]c(C3(C#N)CC3)nc2n1"
Solution: 98%

Problem: Follow-up entry: "COc1nc2nn(-c3c(C)cc(C4CC4)cc3OC(F)F)cc2c(=O)[nH]1"
Solution: 103%

Problem: Follow-up entry: "CCOCc1nc2nn(-c3c(F)cc(C4CC4)cc3C(F)F)cc2c(=O)[nH]1"
Solution: 105%

Problem: Follow-up entry: "Cc1cc(C2CC2)cc(C)c1-n1cc2c(=O)[nH]c(C3CC(F)(F)C3)nc2n1"
Solution: 100%

Problem: Follow-up entry: "Cc1cc(Br)cc(C(F)F)c1-n1cc2c(=O)[nH]c(COC(F)F)nc2n1"
Solution: 100%

Problem: Follow-up entry: "Cc1cc(C2CC2)cc(C)c1-n1cc2c(=O)[nH]c(-c3cc4n(n3)CCO4)nc2n1"
Solution: 98%

* * *

# Tested on: NLRP3 inflammasome (IL-1β production in THP-1 cells)
# experiment-description: IL-1β TR-FRET Assay (percentage of inhibition at 300 nM, 6 μM or 10 μM)
# Type: cell-based, human
# condition-notes: Homo sapiens, THP-1, 6 μM, LPS priming, ATP activation, read-out: IL-1β inhibitory rate at 6 μM (%)
Give inhibition at 6 µM for every item shown.
Remember to quote the unit after the number.

Problem: Need inhibition at 6 µM of COCCc1nc2nn(-c3c(F)cc(C4CC4)cc3C(F)F)cc2c(=O)[nH]1 [Example 300] , thanks.
Solution: 99%

Problem: Follow-up entry: O=c1[nH]c(C2CCOC2)nc2nn(-c3c(F)cc(C4CC4)cc3C(F)F)cc12 (stereo not drawn) [Example 296]
Solution: 104%

Problem: Follow-up entry: O=c1[nH]c(COC(F)F)nc2nn(-c3c(F)cc(C4CC4)cc3C(F)F)cc12 [Example 302]
Solution: 96%

Problem: Follow-up entry: CO[C@H]1C[C@@H](c2nc3nn(-c4c(C)cc(C5CC5)cc4C)cc3c(=O)[nH]2)C1 [Example 248]
Solution: 100%

Problem: Follow-up entry: Cc1cc(C2CC2)cc(C)c1-n1cc2c(=O)[nH]c([C@@]3(F)CCOC3)nc2n1 [Example 247]
Solution: 100%

Problem: Follow-up entry: CCOc1nc2nn(-c3c(C)cc(OC(F)F)nc3C)cc2c(=O)[nH]1 [Example 226]
Solution: 106%

Problem: Follow-up entry: CO[C@@H]1C[C@H]1c1nc2nn(-c3c(C)cc(C4CC4)cc3C)cc2c(=O)[nH]1 (racemic) [Example 265]
Solution: 95%

Problem: Follow-up entry: Cn1ccc(-c2nc3nn(-c4c(F)cc(C5CC5)cc4C(F)F)cc3c(=O)[nH]2)n1 [Example 299]
Solution: 99%

Problem: Follow-up entry: CCOc1c(-n2cc3c(=O)[nH]c(CC)nc3n2)ccc(C2CC2)c1C(F)F [Example 282]
Solution: 55%

* * *

Give inhibition at 6 µM for every item shown.
# Test system: NLRP3 inflammasome (IL-1β production in THP-1 cells)
# experiment-description: IL-1β TR-FRET Assay (percentage of inhibition at 300 nM, 6 μM or 10 μM)
# Format: cell-based, human
# condition-notes: Homo sapiens, THP-1, 6 μM, LPS priming, ATP activation, read-out: IL-1β inhibitory rate at 6 μM (%)
Write the answer as a number in %, unit excluded.

Problem: Need inhibition at 6 µM of "COc1nc2nn(-c3c(F)cc(C4CC4)cc3CC(F)F)cc2c(=O)[nH]1" , thanks.
Solution: 99

Problem: Follow-up entry: "Cc1cc(C2CC2)cc(C)c1-n1cc2c(=O)[nH]c(-c3cnn(C)n3)nc2n1"
Solution: 100

Problem: Follow-up entry: "Cc1cc(C2CC2)cc(C)c1-n1cc2c(=O)[nH]c([C@H]3C[C@H](F)C3)nc2n1"
Solution: 98

Problem: Follow-up entry: "Cc1cc(C2CC2)cc(C)c1-n1cc2c(=O)[nH]c(C3(C)COC3)nc2n1"
Solution: 101

Problem: Follow-up entry: "Cc1cc(C2CC2)cc(C)c1-n1cc2c(=O)[nH]c(COC3COC3)nc2n1"
Solution: 93

Problem: Follow-up entry: "Cc1cc(C2CC2)cc(C)c1-n1cc2c(=O)[nH]c([C@@]3(F)CCCOC3)nc2n1"
Solution: 96

Problem: Follow-up entry: "Cc1cc(C2CC2)cc(C)c1-n1cc2c(=O)[nH]c(-c3cn4c(n3)COCC4)nc2n1"
Solution: 100

Problem: Follow-up entry: "CCOC(Cc1nc2nn(-c3c(C)cc(C4CC4)cc3C)cc2c(=O)[nH]1)OCC"
Solution: 90

Problem: Follow-up entry: "CCCc1nc2nn(-c3c(C)cc(C4CC4)cc3C)cc2c(=O)[nH]1"
Solution: 101

Problem: Follow-up entry: "Cc1cc(C2CC2)cc(C(F)F)c1-n1cc2c(=O)[nH]c(C3(F)CC3)nc2n1"
Solution: 100

Problem: Follow-up entry: Cc1cc(C2CC2)cc(C(F)F)c1-n1cc2c(=O)[nH]c(C3COCCO3)nc2n1 (racemic)
Solution: 104

Problem: Follow-up entry: "Cc1cc(C2CC2)cc(C)c1-n1cc2c(=O)[nH]c(CCO)nc2n1"
Solution: 99

Problem: Follow-up entry: "COCc1nc2nn(-c3c(C)cc(C4CC4)cc3CC(F)F)cc2c(=O)[nH]1"
Solution: 103

Problem: Follow-up entry: "COC1(c2nc3nn(-c4c(C)cc(C5CC5)cc4C)cc3c(=O)[nH]2)CC1"
Solution: 98

Problem: Follow-up entry: "Cc1nc(-c2nc3nn(-c4c(F)cc(C5CC5)cc4C(F)F)cc3c(=O)[nH]2)co1"
Solution: 99

Problem: Follow-up entry: "CCOc1nc2nn(-c3c(C)cc(C4(F)CC4)cc3C)cc2c(=O)[nH]1"
Solution: 101

Problem: Follow-up entry: "Cc1nccc(-c2nc3nn(-c4c(C)cc(C5CC5)cc4C)cc3c(=O)[nH]2)n1"
Solution: 99

Problem: Follow-up entry: "COCc1nc2nn(-c3c(F)cc(C4CC4)cc3C(F)F)cc2c(=O)[nH]1"
Solution: 103

Problem: Follow-up entry: "Nc1ccc(-n2cc3c(=O)[nH]c(COC(F)F)nc3n2)c(C(F)F)c1"
Solution: 80

Problem: Follow-up entry: "Cc1cc(C2CC2)cc(C)c1-n1cc2c(=O)[nH]c(CCOCc3ccccc3)nc2n1"
Solution: 98

Problem: Follow-up entry: "Cc1cc(C2CC2)cc(C)c1-n1cc2c(=O)[nH]c(O[C@H]3CCOC3)nc2n1"
Solution: 98

Problem: Follow-up entry: CO[C@@H]1CC[C@H]1c1nc2nn(-c3c(C)cc(C4CC4)cc3C)cc2c(=O)[nH]1 (racemic)
Solution: 95

Problem: Follow-up entry: Cc1cc(C2CC2)cc(C)c1-n1cc2c(=O)[nH]c(C3C=COCC3)nc2n1 (stereo not drawn)
Solution: 98

Problem: Follow-up entry: "COc1nc2nn(-c3c(C)cc(C4(F)CC4)cc3C)cc2c(=O)[nH]1"
Solution: 105

Problem: Follow-up entry: "Cc1cc(C2CC2)cc(C)c1-n1cc2c(=O)[nH]c(OCCOC(F)F)nc2n1"
Solution: 99

Problem: Follow-up entry: "Cc1cc(C2CC2)cc(C)c1-n1cc2c(=O)[nH]c(O[C@@H]3CCOC3)nc2n1"
Solution: 99

Problem: Follow-up entry: CO[C@@H]1COCC[C@@H]1c1nc2nn(-c3c(C)cc(C4CC4)cc3C)cc2c(=O)[nH]1 (racemic)
Solution: 99

Problem: Follow-up entry: "Cc1cc(C2CC2)cc(Cl)c1-n1cc2c(=O)[nH]c(COC(F)F)nc2n1"
Solution: 106

Problem: Follow-up entry: "COCc1nc2nn(-c3c(F)cc(C4CC4)cc3CC(F)F)cc2c(=O)[nH]1"
Solution: 104

Problem: Follow-up entry: "COC1(c2nc3nn(-c4c(C)cc(C5CC5)cc4C)cc3c(=O)[nH]2)CCC1"
Solution: 96

Problem: Follow-up entry: "Cc1cc(C2CC2)cc(C)c1-n1cc2c(=O)[nH]c([C@]3(F)CCOC3)nc2n1"
Solution: 99

Problem: Follow-up entry: "Cc1cc(C2CC2)cc(C)c1-n1cc2c(=O)[nH]c(OCC(F)F)nc2n1"
Solution: 100

Problem: Follow-up entry: "CCOc1nc2nn(-c3c(C(F)(F)F)cc(C4CC4)nc3C)cc2c(=O)[nH]1"
Solution: 100
